experiment.notes: Solubility in water by HPLC analysis
assay.conditions: water
Answer label 0 if solubility at 24 h is under 80 µg/mL, and label 1 if it is 80 µg/mL or more.

Observe how each entry below is paired with its result.
compound="CC(C)(C)c1cc(C(=O)/C(C#N)=N/Nc2cc(C(F)(F)F)cc(C(F)(F)F)c2)no1 [Compound 25]" label_class="label 1"
compound="CC(C)(C)c1cc(C(=O)/C(C#N)=N/Nc2cc(F)c(F)c(F)c2)no1 [Compound 36]" label_class="label 0"
compound="CC(C)(C)c1cc(C(=O)/C(C#N)=N/Nc2ccc(F)c(Cl)c2)no1 [Compound 31]" label_class="label 1"
compound="N#C/C(=N\\Nc1cc(Cl)c(Cl)c(Cl)c1)C(=O)c1cc(C2CCCCC2)on1 [Compound 47]" label_class="label 0"

We next turn to a different compound, shown below.
IN: State whether the measured solubility at 24 h reaches 80 µg/mL, counting equality as reaching it, for CC(C)(C)c1cc(C(=O)/C(C#N)=N/Nc2cc(Cl)c(Cl)c(Cl)c2)no1 [Compound 35]
OUT: label 0
